# study system: UniProt:Q15858
# assay remarks: Tritiated compound binding to membranes from cells heterologously expressing hNav1.7 and the β1 subunit (LBA)
# reported conditions: competitive binding vs [3H]compound, membranes with hNav1.7 and β1 subunit; read-out: Nav1.7 LBA EVO IC50
Reported values of pIC50 for individual entries
# pIC50 is unitless: minus log10 of the molar concentration; print number only

Some molecules with recorded pIC50:
COc1cc(-c2cccc(F)c2)c(F)cc1N1C(=O)CO[C@H]2CN(S(=O)(=O)Nc3ccon3)CC[C@@H]21: 6.15
COc1cc(-c2cccc(C(F)(F)F)c2)c(F)cc1N1CCO[C@@H]2CN(S(=O)(=O)Nc3ccon3)CC[C@H]21: 6.68

// moving on: another record for pIC50
Input line: Name the recorded pIC50 of the item COc1cc(-c2cccc(C(F)(F)F)c2)c(F)cc1N1C(=O)CO[C@H]2CN(S(=O)(=O)Nc3ccon3)CC[C@@H]21 in your answer.
Output line: 7.22

---

# study system: hNav1.7 (Homo sapiens (Human))
# assay remarks: Electrophysiological assay (EP), voltage clamp on Syncropatch 384PE
# Format: cell-based
# reported conditions: CHO cells expressing Nav1.7, holding potential −50 mV, 7.5 min compound incubation; read-out: EP_SP hNav1.7 EVO IC50
measurement label: log10(IC50) (log10 of the value in nM)
Annotation: log10 of IC50, nM basis.

COc1cc(-c2cccc(C(F)(F)F)c2)c(F)cc1N1CCO[C@@H]2CN(S(=O)(=O)Nc3ccncn3)CC[C@H]21: 0.31
COc1cc(-c2cc(F)cc(C(F)(F)F)c2)c(F)cc1N1C(=O)CO[C@H]2CN(S(=O)(=O)Nc3ccon3)CC[C@@H]21: 0.26
COc1cc(-c2cccc(F)c2)c(F)cc1N1C(=O)CO[C@@H]2CN(S(=O)(=O)Nc3ccon3)CC[C@H]21: 1.29

Input line: Report value only: log10(IC50), hNav1.7 (Homo sapiens (Human)), COc1nc(-c2cccc(C(F)(F)F)c2)c(F)cc1N1C(=O)CO[C@@H]2CN(S(=O)(=O)Nc3ccon3)CC[C@H]21
Output line: 1.68

Input line: Tell me log10(IC50) of COc1cc(-c2cccc(C(F)(F)F)c2F)c(F)cc1N1C(=O)CO[C@H]2CN(S(=O)(=O)Nc3ccon3)CC[C@@H]21 when tested on hNav1.7 (Homo sapiens (Human)).
Output line: 0.83

Input line: State log10(IC50) on hNav1.7 (Homo sapiens (Human)). Entry: COc1cc(-c2cccc(C(F)(F)F)c2)c(F)cc1N1C(=O)CC[C@H]2CN(S(=O)(=O)Nc3ccon3)CCC21 (stereo in doubt) [Example 37]
Output line: 1.11

---

# study system: hNav1.7 (Homo sapiens (Human))
# assay remarks: Tritiated compound binding to membranes from cells heterologously expressing hNav1.7 and the β1 subunit (LBA)
# reported conditions: competitive binding vs [3H]compound, membranes with hNav1.7 and β1 subunit; read-out: Nav1.7 LBA EVO IC50
Measured IC50, listed per entry.
Record the value in µM, omitting the unit from your answer.

N#Cc1cc(-c2cccc(C(F)(F)F)c2)c(F)cc1N1C(=O)CO[C@H]2CN(S(=O)(=O)Nc3ccon3)CC[C@@H]21: 2
COc1cc(-c2cccc(C(F)(F)F)c2)c(F)cc1N1C(=O)CO[C@@H]2CN(S(=O)(=O)Nc3ccon3)CC[C@H]21: 0.067
COc1cc(-c2cccc(Cl)c2)c(F)cc1N1C(=O)CO[C@@H]2CN(S(=O)(=O)Nc3ccon3)CC[C@H]21: 0.471
COc1cc(-c2cc(C(F)(F)F)ccc2F)c(F)cc1N1C(=O)CO[C@H]2CN(S(=O)(=O)Nc3ccon3)CC[C@@H]21: 0.0828
COc1cc(-c2cccc(Cl)c2)c(F)cc1N1C(=O)CO[C@H]2CN(S(=O)(=O)Nc3ccon3)CC[C@@H]21: 0.332
N#Cc1cc(-c2cccc(C(F)(F)F)c2)c(F)cc1N1C(=O)CO[C@@H]2CN(S(=O)(=O)Nc3ccon3)CC[C@H]21: 2
COc1cc(-c2cccc(C(F)(F)F)c2)c(F)cc1N1C(=O)CC[C@H]2CN(S(=O)(=O)Nc3ccon3)CCC21 (stereo in doubt) [Example 36]: 0.0207
COc1nc(-c2cccc(C(F)(F)F)c2)c(F)cc1N1C(=O)CO[C@H]2CN(S(=O)(=O)Nc3ccon3)CC[C@@H]21: 0.907

Input line: Report IC50, nothing else, for this compound: COc1cc(-c2cc(F)cc(C(F)(F)F)c2)c(F)cc1N1C(=O)CO[C@H]2CN(S(=O)(=O)Nc3ccon3)CC[C@@H]21
Output line: 0.0529

---

# study system: hNav1.7 (Homo sapiens (Human), UniProt Q15858)
# assay remarks: Electrophysiological assay (EP), voltage clamp on Syncropatch 384PE
# Format: cell-based
# reported conditions: CHO cells expressing Nav1.7, holding potential −50 mV, 7.5 min compound incubation; read-out: EP_SP hNav1.7 EVO IC50
Listing of entries alongside the reported pIC50.
Convention used: pIC50 is expressed as -log10 of the molar concentration.

Please review the following examples before continuing.
COc1cc(-c2ccc(F)c(C(F)(F)F)c2)c(F)cc1N1C(=O)CO[C@@H]2CN(S(=O)(=O)Nc3ccon3)CC[C@H]21: 8.95
COc1cc(-c2cccc(C(F)(F)F)c2)c(F)cc1N1CCO[C@@H]2CN(S(=O)(=O)Nc3ccon3)CC[C@H]21: 8.63
COc1cc(-c2cccc(C(F)F)c2)c(F)cc1N1C(=O)CO[C@@H]2CN(S(=O)(=O)Nc3ccon3)CC[C@H]21: 7.33
COc1cc(-c2cccc(F)c2)c(F)cc1N1C(=O)CO[C@H]2CN(S(=O)(=O)Nc3ccon3)CC[C@@H]21: 7.32
COc1cc(-c2cccc(C(F)(F)F)c2)c(F)cc1N1C(=O)OC[C@H]2CN(S(=O)(=O)Nc3ccon3)CC[C@@H]21: 6.71

Input line: Report value: pIC50, system: hNav1.7 (Homo sapiens (Human), UniProt Q15858), compound: COc1cc(-c2cccc(C(F)(F)F)c2)c(F)cc1N1CCO[C@H]2CN(S(=O)(=O)Nc3ccon3)CC[C@@H]21
Output line: 7.97

Input line: Quote pIC50 with test system hNav1.7 (Homo sapiens (Human), UniProt Q15858) for COc1cc(-c2cccc(C(F)(F)F)c2)c(F)cc1N1C(=O)CC[C@@H]2CN(S(=O)(=O)Nc3ccon3)CC[C@@H]21
Output line: 7.97

Input line: Print hNav1.7 (Homo sapiens (Human), UniProt Q15858) pIC50 for COc1cc(-c2cccc(Cl)c2)c(F)cc1N1C(=O)CO[C@@H]2CN(S(=O)(=O)Nc3ccon3)CC[C@H]21 .
Output line: 7.93

---

# study system: hNav1.7 (Homo sapiens (Human), UniProt Q15858)
# assay remarks: Tritiated compound binding to membranes from cells heterologously expressing hNav1.7 and the β1 subunit (LBA)
# reported conditions: competitive binding vs [3H]compound, membranes with hNav1.7 and β1 subunit; read-out: Nav1.7 LBA EVO IC50
# Method: Example 39A. Tritiated Compound Binding to Membranes Isolated from Cells that Heterologously Express hNav1.7 and the β1 Subunit Preparation of membranes containing recombinantly expressed sodium channels: Frozen recombinant cell pellets were thawed on ice and diluted to 4 times the cell pellet weight with ice cold 50 mM Tris HCl, pH 7.4 buffer. […] Protein concentrations were determined by Bradford Assay and the membranes were stored at −80° C. […]
Recorded pIC50, one value per entry.
The read-out pIC50 is expressed as -log10 of concentration in moles per litre.

Reference set, count: 3
COc1cc(-c2cc(C(F)(F)F)ccc2F)c(F)cc1N1C(=O)CO[C@@H]2CN(S(=O)(=O)Nc3ccon3)CC[C@H]21: 6.78
COc1cc(-c2cccc(C(F)(F)F)c2F)c(F)cc1N1C(=O)CO[C@H]2CN(S(=O)(=O)Nc3ccon3)CC[C@@H]21: 6.88
COc1cc(-c2cccc(C(F)(F)F)c2)c(F)cc1N1C(=O)OC[C@H]2CN(S(=O)(=O)Nc3ccon3)CC[C@@H]21: 5.70

Input line: Find the measured pIC50 of COc1cc(-c2cccc(C(F)(F)F)c2)ccc1N1C(=O)CO[C@@H]2CN(S(=O)(=O)Nc3ccon3)CC[C@H]21 and report it.
Output line: 6.67

Input line: Check the records and state pIC50 for COc1cc(-c2cccc(C(F)(F)F)c2)c(F)cc1N1CCO[C@H]2CN(S(=O)(=O)Nc3ccncn3)CC[C@@H]21
Output line: 7.58

---

We begin with a simple list: items and their reported IC50.
# study system: UniProt:Q15858
# assay remarks: Electrophysiological assay (EP), voltage clamp on Syncropatch 384PE
# Assay type: cell-based
# reported conditions: CHO cells expressing Nav1.7, holding potential −50 mV, 7.5 min compound incubation; read-out: EP_SP hNav1.7 EVO IC50
Report as a plain number; the unit nM is understood.

Reference set (4 entries):
COc1cc(-c2cccc(C(F)(F)F)c2)ccc1N1C(=O)CO[C@@H]2CN(S(=O)(=O)Nc3ccon3)CC[C@H]21: 6.03
COc1cc(-c2cccc(C(F)(F)F)c2)c(F)cc1N1C(=O)CC[C@H]2CN(S(=O)(=O)Nc3ccon3)CCC21 (stereo in doubt) [Example 36]: 2.19
COc1nc(-c2cccc(C(F)(F)F)c2)c(F)cc1N1C(=O)CO[C@H]2CN(S(=O)(=O)Nc3ccon3)CC[C@@H]21: 66.8
COc1cc(-c2cccc(C(F)(F)F)c2)c(F)cc1N1C(=O)OC[C@@H]2CN(S(=O)(=O)Nc3ccon3)CC[C@H]21: 10.4

Input line: Please tell me the measured IC50 for COc1cc(-c2cccc(C(F)(F)F)c2F)c(F)cc1N1C(=O)CO[C@@H]2CN(S(=O)(=O)Nc3ccon3)CC[C@H]21 ; system: UniProt:Q15858.
Output line: 11.2

Input line: Report IC50 from UniProt:Q15858 testing of COc1cc(-c2ccc(F)c(C(F)(F)F)c2)c(F)cc1N1C(=O)CO[C@H]2CN(S(=O)(=O)Nc3ccon3)CC[C@@H]21
Output line: 0.915

Input line: Find IC50 for COc1cc(-c2cc(C(F)(F)F)ccc2F)c(F)cc1N1C(=O)CO[C@@H]2CN(S(=O)(=O)Nc3ccon3)CC[C@H]21 on UniProt:Q15858 and write it down.
Output line: 5.76

Input line: // fetch IC50; item: COc1cc(-c2cccc(C(F)(F)F)c2)c(F)cc1N1C(=O)CO[C@@H]2CN(S(=O)(=O)Nc3ccon3)CC[C@H]21 ; system: UniProt:Q15858
Output line: 2.26

Input line: # assay system UniProt:Q15858: give IC50 of COc1cc(-c2cccc(C(F)(F)F)c2)c(F)cc1N1C(=O)CC[C@@H]2CN(S(=O)(=O)Nc3ccon3)CC[C@H]21
Output line: 2.88
